The measurements presented in this section are drawn from patent US9783511B2.

Dear all, this message contains IC50 results, target or system human RORgammaT-Ligand Binding Domain (LBD) (Homo sapiens (Human), UniProt P51449).

{"columns": ["compound", "study_system", "IC50 / nM"],
 "data": [
  ["CCc1nc(S(=O)(=O)N2C[C@H](C[C@@H](C)C(=O)O)Oc3ccc(NC(=O)OC(C)(C)C(F)(F)F)cc32)c(OCC(F)(F)F)s1 (single isomer, unassigned)", "human RORgammaT-Ligand Binding Domain (LBD) (Homo sapiens (Human), UniProt P51449)", 12.3],
  ["CCOc1sc(C2CC2)nc1S(=O)(=O)N1C[C@H](CCC(=O)O)Oc2ccc(NC(=O)OC(C)(C)C(F)(F)F)cc21", "human RORgammaT-Ligand Binding Domain (LBD) (Homo sapiens (Human), UniProt P51449)", 14.4],
  ["CC[C@@H](C[C@H]1CN(S(=O)(=O)c2cccc(C3CC3)c2)c2cc(NC(=O)OC(C)(C)C(F)(F)F)ccc2O1)C(=O)O (single isomer, unassigned) [Example 10F]", "human RORgammaT-Ligand Binding Domain (LBD) (Homo sapiens (Human), UniProt P51449)", 13.3],
  ["C[C@H](C[C@H]1CN(S(=O)(=O)c2cccc(C3CC3)c2)c2cc(NC(=O)OC(C)(C)C(F)(F)F)ccc2O1)C(=O)O (single isomer, unassigned)", "human RORgammaT-Ligand Binding Domain (LBD) (Homo sapiens (Human), UniProt P51449)", 10.2],
  ["COc1cc(C)ccc1S(=O)(=O)N1C[C@H](CCC(=O)O)Oc2ccc(NC(=O)OC(C)(C)C(F)(F)F)cc21", "human RORgammaT-Ligand Binding Domain (LBD) (Homo sapiens (Human), UniProt P51449)", 17.1],
  ["COc1cc(S(=O)(=O)N2C[C@H]([C@H]3C[C@@H]3C(=O)O)Oc3ccc(NC(=O)OC(C)(C)C(F)(F)F)cc32)ccc1F (single isomer, unassigned) [Example 22i]", "human RORgammaT-Ligand Binding Domain (LBD) (Homo sapiens (Human), UniProt P51449)", 22.4],
  ["COc1cc(S(=O)(=O)N2c3cc(NC(=O)OC(C)(C)C(F)(F)F)ccc3O[C@H](CC(C)(C)C(=O)O)[C@@H]2C)ccc1F [Example 27A]", "human RORgammaT-Ligand Binding Domain (LBD) (Homo sapiens (Human), UniProt P51449)", 8200],
  ["Cc1ccc(S(=O)(=O)N2C[C@H]([C@H]3C[C@@H]3C(=O)O)Oc3ccc(NC(=O)OC(C)(C)C(F)(F)F)cc32)cc1 (single isomer, unassigned) [Example 22G]", "human RORgammaT-Ligand Binding Domain (LBD) (Homo sapiens (Human), UniProt P51449)", 34.2],
  ["COc1cc(S(=O)(=O)N2C[C@H](CCC(=O)O)Oc3ccc(NC(=O)OC(C)(C)C(F)(F)F)cc32)ccn1", "human RORgammaT-Ligand Binding Domain (LBD) (Homo sapiens (Human), UniProt P51449)", 24.1],
  ["CC(C)(OC(=O)Nc1ccc2c(c1)N(S(=O)(=O)c1ccc(F)c(C(F)(F)F)c1)C[C@H]([C@H]1C[C@H]1C(=O)O)O2)C(F)(F)F [Example 22A]", "human RORgammaT-Ligand Binding Domain (LBD) (Homo sapiens (Human), UniProt P51449)", 22.4],
  ["C[C@@H](C[C@H]1CN(S(=O)(=O)c2cccc(OC(F)F)c2)c2cc(NC(=O)OC(C)(C)C(F)(F)F)ccc2O1)C(=O)O (single isomer, unassigned)", "human RORgammaT-Ligand Binding Domain (LBD) (Homo sapiens (Human), UniProt P51449)", 8.38]
]}

###

Dear all, this message contains IC50 results, target or system human RORgammaT-Ligand Binding Domain (LBD) (Homo sapiens (Human), UniProt P51449).

{"columns": ["compound", "IC50 [nM]"],
 "data": [
  ["COc1cc(S(=O)(=O)N2C[C@H](CC(O)C(=O)O)Oc3ccc(NC(=O)OC(C)(C)C(F)(F)F)cc32)ccc1F (mixture of isomers) [Example 18F]", 9.39],
  ["Cc1c(Cl)cc(F)cc1S(=O)(=O)N1C[C@H](CCC(=O)O)Oc2ccc(NC(=O)OC(C)(C)C(F)(F)F)cc21", 11.1],
  ["COc1cc(S(=O)(=O)N2C[C@H](CCC(=O)O)Oc3ccc(NC(=O)OCC4(C(F)(F)F)CC4)cc32)ccc1F [Example 24A]", 17.7],
  ["CCOc1nn(CC)cc1S(=O)(=O)N1C[C@H](CCC(=O)O)Oc2c(F)cc(NC(=O)OC(C)(C)C(F)(F)F)cc21 [Example 29D]", 7.92],
  ["Cc1cc(S(=O)(=O)N2C[C@H](CCC(=O)O)Oc3c(F)cc(NC(=O)OC(C)(C)C(F)(F)F)cc32)ccc1F [Example 29A]", 5.71],
  ["C[C@@H]1[C@H](CCC(=O)O)Oc2ccc(NC(=O)OC(C)(C)C(F)(F)F)cc2N1S(=O)(=O)c1cccc(C(F)(F)F)c1", 10.1],
  ["CCn1cc(S(=O)(=O)N2C[C@H](CCC(=O)O)Oc3c(F)cc(NC(=O)OC(C)(C)C(F)(F)F)cc32)c(Cl)n1 [Example 29C]", 9.68],
  ["COc1cc(S(=O)(=O)N2c3cc(NC(=O)OC(C)(C)C(F)(F)F)ccc3O[C@@H](CC(C)(C)C(=O)O)[C@H]2C)ccc1F [Example 27B]", 17.5]
]}

###

- study_system: human RORgammaT-Ligand Binding Domain (LBD) (Homo sapiens (Human), UniProt P51449)
- Sequence (P51449 269-508): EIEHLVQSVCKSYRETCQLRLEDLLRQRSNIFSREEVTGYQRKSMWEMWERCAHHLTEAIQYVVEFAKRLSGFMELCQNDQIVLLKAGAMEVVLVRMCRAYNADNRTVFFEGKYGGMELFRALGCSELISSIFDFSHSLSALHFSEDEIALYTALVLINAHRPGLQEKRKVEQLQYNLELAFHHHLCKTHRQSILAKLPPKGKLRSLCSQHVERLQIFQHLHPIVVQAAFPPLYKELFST
pIC50: −log10 of the molar value.
quantity_kind: pIC50

{"columns": ["molecule", "result_number"],
 "data": [
  ["CC(C)(OC(=O)Nc1ccc2c(c1)N(S(=O)(=O)c1ccc(F)c(C(F)(F)F)c1)C[C@H]([C@@H](CC(=O)O)C1CC1)O2)C(F)(F)F (single isomer, unassigned) [Example 21A]", 7.55],
  ["CC(C)(OC(=O)Nc1ccc2c(c1)N(S(=O)(=O)c1ccc(F)c(C(F)(F)F)c1)C[C@H]([C@@H]1C[C@@H]1C(=O)O)O2)C(F)(F)F [Example 22B]", 7.87],
  ["Cc1cccc(S(=O)(=O)N2C[C@H](C[C@H](C)C(=O)O)Oc3ccc(NC(=O)OC(C)(C)C(F)(F)F)cc32)c1 (single isomer, unassigned) [Example 6CP]", 7.94]
]}

###

- study_system: human RORgammaT-Ligand Binding Domain (LBD) (Homo sapiens (Human), UniProt P51449)
pIC50: −log10 of the molar value.
Binary classification by pIC50, with 8 as an inclusive lower bound for yes; all other cases are no.

{"columns": ["compound", "cat"],
 "data": [
  ["CC(C)(OC(=O)Nc1ccc2c(c1)N(S(=O)(=O)c1ccc(F)c(C(F)(F)F)c1)C[C@H]([C@H](CC(=O)O)C1CC1)O2)C(F)(F)F (single isomer, unassigned) [Example 21C]", "no"],
  ["COc1cc(S(=O)(=O)N2C[C@H](CCC(=O)O)Oc3c(F)cc(NC(=O)OC(C)(C)C(F)(F)F)cc32)ccc1F [Example 29B]", "yes"]
]}

###

- study_system: human RORgammaT-Ligand Binding Domain (LBD) (Homo sapiens (Human), UniProt P51449)
- protocol_notes: RORγ-Ligand Binding Domain TR-FRET Assay (co-activator peptide SRC1_2 recruitment)
- Type: biochemical
- protocol_conditions: HIS-tagged RORγ-LBD 3 nM, biotinylated SRC1 LXXLL peptide 100 nM, incubated overnight at 4° C., 665 nm/615 nm ratio
Rule for this label: met means IC50 is less than 0.03 µM; not met means IC50 is at least 0.03 µM.

{"columns": ["molecule", "study_system", "cat"],
 "data": [
  ["C[C@@H](C[C@H]1CN(S(=O)(=O)c2cn(C(F)F)nc2Cl)c2cc(NC(=O)OC(C)(C)C(F)(F)F)ccc2O1)C(=O)O (single isomer, unassigned)", "human RORgammaT-Ligand Binding Domain (LBD) (Homo sapiens (Human), UniProt P51449)", "not met"],
  ["Cc1cc(S(=O)(=O)N2C[C@H](CCC(=O)O)Oc3ccc(NC(=O)OC(C)(C)C(F)(F)F)cc32)c(Cl)cc1F", "human RORgammaT-Ligand Binding Domain (LBD) (Homo sapiens (Human), UniProt P51449)", "met"],
  ["Cc1cc(S(=O)(=O)N2C[C@H](C[C@H](C(=O)O)C3CC3)Oc3ccc(NC(=O)OC(C)(C)C(F)(F)F)cc32)ccc1F (single isomer, unassigned) [Example 10X]", "human RORgammaT-Ligand Binding Domain (LBD) (Homo sapiens (Human), UniProt P51449)", "not met"],
  ["C[C@H](C[C@H]1CN(S(=O)(=O)c2cccc(OC(F)F)c2)c2cc(NC(=O)OC(C)(C)C(F)(F)F)ccc2O1)C(=O)O (single isomer, unassigned)", "human RORgammaT-Ligand Binding Domain (LBD) (Homo sapiens (Human), UniProt P51449)", "met"],
  ["Cc1cncc(S(=O)(=O)N2C[C@H](CCC(=O)O)Oc3ccc(NC(=O)OC(C)(C)C(F)(F)F)cc32)c1", "human RORgammaT-Ligand Binding Domain (LBD) (Homo sapiens (Human), UniProt P51449)", "not met"],
  ["CC(C)(OC(=O)Nc1ccc2c(c1)N(S(=O)(=O)c1cccc(C3CC3)c1)C[C@@H](CC1(C(=O)O)CC1)O2)C(F)(F)F [Example 14D]", "human RORgammaT-Ligand Binding Domain (LBD) (Homo sapiens (Human), UniProt P51449)", "not met"]
]}
